Target: UniProtKB P51684
Sequence (P51684 1-374): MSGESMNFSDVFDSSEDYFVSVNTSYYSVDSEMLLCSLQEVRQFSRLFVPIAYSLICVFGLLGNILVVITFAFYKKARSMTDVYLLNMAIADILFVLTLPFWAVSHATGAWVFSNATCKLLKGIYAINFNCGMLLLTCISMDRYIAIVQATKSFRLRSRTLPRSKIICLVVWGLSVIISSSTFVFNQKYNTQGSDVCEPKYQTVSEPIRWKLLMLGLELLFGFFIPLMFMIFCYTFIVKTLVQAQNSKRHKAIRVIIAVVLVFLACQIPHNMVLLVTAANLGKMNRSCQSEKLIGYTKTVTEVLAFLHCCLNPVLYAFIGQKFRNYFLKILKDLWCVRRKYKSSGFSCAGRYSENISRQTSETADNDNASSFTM
Experiment: Migration assay (chemotaxis, ChemoTX)
Settings: hCCR6-transfected Ba/F3 cells in human serum, migration to recombinant human CCL20 10 nM, 37° C. 45 minutes; read-out: Potency (IC50 value in the migration assay)
pIC50: −log10 of the molar value.
Consider the following compounds; for each one, report its pIC50.

Challenge: Provide only the value of recorded pIC50 for O=C1Nc2ncc(-c3ccc(S(=O)(=O)N4CC[C@@H](Nc5ccc(C(F)(F)F)cn5)[C@@H](O)C4)cc3)cc2C12CCC2 [Compound 159]
Response given: > 9.00

Challenge: Provide only the value of recorded pIC50 for Cn1c(-c2ccc(S(=O)(=O)N3CC[C@@H](Nc4ccc(C(F)(F)F)cn4)[C@@H](O)C3)cc2)cnc1C(N)=O [Compound 71]
Response given: > 9.00

Challenge: Provide only the value of recorded pIC50 for CN(C)c1cc(-c2ccc(S(=O)(=O)N3CC[C@@H](Nc4ccc(C(F)(F)F)cn4)[C@@H](O)C3)cc2)cc(C(N)=O)n1 [Compound 196]
Response given: > 9.00

Challenge: Provide only the value of recorded pIC50 for N[C@H]1C[C@@H](Nc2cc(-c3ccc(S(=O)(=O)N4CC[C@@H](Nc5ccc(C(F)(F)F)cn5)[C@@H](O)C4)cc3)ccn2)C1 [Compound 129]
Response given: > 9.00

Challenge: Provide only the value of recorded pIC50 for NC(=O)Cc1cc(-c2ccc(S(=O)(=O)N3CC[C@@H](Nc4ccc(C(F)(F)F)cn4)[C@@H](O)C3)cc2)ccn1 [Compound 207]
Response given: 8.00 to 9.00

Challenge: Provide only the value of recorded pIC50 for O=S(=O)(c1ccc(-c2ccnc(N3CC4(COC4)C3)c2)cc1)N1CC[C@@H](Nc2ccc(C(F)(F)F)cn2)[C@@H](O)C1 [Compound 135]
Response given: > 9.00

Challenge: Provide only the value of recorded pIC50 for CN(C)c1ccc(-c2ccc(S(=O)(=O)N3CC[C@@H](Nc4ccc(C(F)(F)F)cn4)[C@@H](O)C3)cc2)cn1 [Compound 112]
Response given: > 9.00

Challenge: Provide only the value of recorded pIC50 for CC(C)(O)C1CN(c2ccc(-c3ccc(S(=O)(=O)N4CC[C@@H](Nc5ccc(C(F)(F)F)cn5)[C@@H](O)C4)cc3)cn2)C1 [Compound 92]
Response given: > 9.00

Challenge: Provide only the value of recorded pIC50 for NC(=O)c1ncc(-c2ccc(S(=O)(=O)N3CC[C@@H](Nc4ccc(C(F)(F)F)cn4)[C@@H](O)C3)cc2)[nH]1 [Compound 197]
Response given: 8.00 to 9.00

Challenge: Provide only the value of recorded pIC50 for N#Cc1cc(-c2ccc(S(=O)(=O)N3CC[C@@H](Nc4ccc(C(F)(F)F)cn4)[C@@H](O)C3)cc2)cnn1 [Compound 199]
Response given: 8.00 to 9.00

Challenge: Provide only the value of recorded pIC50 for O=C1NCc2cc(-c3ccc(S(=O)(=O)N4CC[C@@H](Nc5ccc(C(F)(F)F)cn5)[C@@H](O)C4)cc3)ccc21 [Example 12]
Response given: > 9.00

Challenge: Provide only the value of recorded pIC50 for Nc1ccc(-c2ccc(S(=O)(=O)N3CC[C@@H](Nc4ccc(C(F)(F)F)cn4)[C@@H](O)C3)cc2)cn1 [Compound 160]
Response given: > 9.00

Challenge: Provide only the value of recorded pIC50 for NC(=O)c1cc(-c2ccc(S(=O)(=O)N3CC[C@@H](Nc4ncc(C(F)(F)F)cn4)[C@@H](O)C3)cc2)ccn1 [Compound 86]
Response given: 6.00 to 8.00

----------
Target: human CCR6 (Homo sapiens, UniProt P51684)
Assay: Migration assay (chemotaxis, ChemoTX)
Settings: hCCR6-transfected Ba/F3 cells in human serum, migration to recombinant human CCL20 10 nM, 37° C. 45 minutes; read-out: Potency (IC50 value in the migration assay)
Consider the following compounds; for each one, report its IC50.

Challenge: Provide only the value of recorded IC50 for O=C1CCc2cc(-c3ccc(S(=O)(=O)N4CC[C@@H](Nc5ccc(C(F)(F)F)cn5)[C@@H](O)C4)cc3)ccc2N1 [Example 2]
Response given: < 1 nM

Challenge: Provide only the value of recorded IC50 for Nc1n[nH]c2ncc(-c3ccc(S(=O)(=O)N4CC[C@@H](Nc5ccc(C(F)(F)F)cn5)[C@@H](O)C4)cc3)cc12 [Example 38]
Response given: < 1 nM

Challenge: Provide only the value of recorded IC50 for N#Cc1n[nH]c2ncc(-c3ccc(S(=O)(=O)N4CC[C@@H](Nc5ccc(C(F)(F)F)cn5)[C@@H](O)C4)cc3)cc12 [Compound 193]
Response given: < 1 nM

----------
Biological target: human CCR6 (Homo sapiens, UniProt P51684)
Construct: expressed in transfected cells; host or cells: Ba/F3 cells (mouse pro-B line)
Sequence (P51684 1-374): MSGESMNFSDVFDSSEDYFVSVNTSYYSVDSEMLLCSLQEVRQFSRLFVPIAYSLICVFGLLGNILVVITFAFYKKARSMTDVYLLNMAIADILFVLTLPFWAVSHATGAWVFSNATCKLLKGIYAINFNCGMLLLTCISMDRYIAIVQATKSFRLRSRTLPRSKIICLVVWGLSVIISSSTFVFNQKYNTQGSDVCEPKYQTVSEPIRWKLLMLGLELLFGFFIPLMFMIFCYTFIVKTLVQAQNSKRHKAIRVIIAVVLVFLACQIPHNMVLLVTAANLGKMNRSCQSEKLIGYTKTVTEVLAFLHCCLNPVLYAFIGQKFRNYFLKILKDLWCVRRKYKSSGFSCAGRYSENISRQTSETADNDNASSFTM
Test: Migration assay (chemotaxis, ChemoTX)
Assay type: cell-based
Settings: hCCR6-transfected Ba/F3 cells in human serum, migration to recombinant human CCL20 10 nM, 37° C. 45 minutes; read-out: Potency (IC50 value in the migration assay)
readout name: IC50

Challenge: Provide only the value of recorded IC50 for O=S(=O)(c1ccc(-c2cncc(N3CCNCC3)c2)cc1)N1CC[C@@H](Nc2ccc(C(F)(F)F)cn2)[C@@H](O)C1
Response given: 1 to 10 nM

Challenge: Provide only the value of recorded IC50 for COc1c(-c2ccc(S(=O)(=O)N3CC[C@@H](Nc4ccc(C(F)(F)F)cn4)[C@@H](O)C3)cc2)cnc2[nH]ccc12
Response given: < 1 nM

Challenge: Provide only the value of recorded IC50 for CN1CCN(c2ccc(-c3ccc(S(=O)(=O)N4CC[C@@H](Nc5ccc(C(F)(F)F)cn5)[C@@H](O)C4)cc3)cn2)CC1
Response given: < 1 nM

Challenge: Provide only the value of recorded IC50 for COC(=O)c1cc(-c2ccc(S(=O)(=O)N3CC[C@@H](Nc4ccc(C(F)(F)F)cn4)[C@@H](O)C3)cc2)ccn1
Response given: < 1 nM

Challenge: Provide only the value of recorded IC50 for Cc1nc2[nH]cc(C#N)c2cc1-c1ccc(S(=O)(=O)N2CC[C@@H](Nc3ccc(C(F)(F)F)cn3)[C@@H](O)C2)cc1
Response given: < 1 nM

Challenge: Provide only the value of recorded IC50 for Cc1cc(-c2ccc(S(=O)(=O)N3CC[C@@H](Nc4ccc(C(F)(F)F)cn4)[C@@H](O)C3)cc2)cc2c1C(=O)NC2
Response given: < 1 nM

Challenge: Provide only the value of recorded IC50 for NC(=O)c1cc(-c2ccc(S(=O)(=O)N3CC[C@@H](Nc4ccc(C(F)(F)F)cn4)[C@@H](O)C3)cc2)cnn1
Response given: < 1 nM

Challenge: Provide only the value of recorded IC50 for O=C(NCCO)c1cc(-c2ccc(S(=O)(=O)N3CC[C@@H](Nc4ccc(C(F)(F)F)cn4)[C@@H](O)C3)cc2)ccn1
Response given: < 1 nM

Challenge: Provide only the value of recorded IC50 for CNC(=O)N1Cc2ccc(-c3ccc(S(=O)(=O)N4CC[C@@H](Nc5ccc(C(F)(F)F)cn5)[C@@H](O)C4)cc3)cc2C1
Response given: < 1 nM

Challenge: Provide only the value of recorded IC50 for Cc1cc(C(F)(F)F)cnc1N[C@@H]1CCN(S(=O)(=O)c2ccc(-c3cnc4[nH]cc(C#N)c4c3)cc2)C[C@@H]1O
Response given: < 1 nM

Challenge: Provide only the value of recorded IC50 for O=S(=O)(c1ccc(-c2ccnc(N3CC(O)C3)c2)cc1)N1CC[C@@H](Nc2ccc(C(F)(F)F)cn2)[C@@H](O)C1
Response given: < 1 nM

Challenge: Provide only the value of recorded IC50 for Cc1cc(-c2ccc(S(=O)(=O)N3CC[C@@H](Nc4ccc(C(F)(F)F)cn4)[C@@H](O)C3)cc2)cc2c(C#N)n[nH]c12
Response given: < 1 nM

Challenge: Provide only the value of recorded IC50 for COc1c(-c2ccc(S(=O)(=O)N3CC[C@@H](Nc4ccc(C(F)(F)F)cn4)[C@@H](O)C3)cc2)ccnc1C
Response given: < 1 nM
